Experiment: Pharmacokinetics in beagles, multiple-dose regimen (once per day for 7 days) of TRQI or TRQC, plasma LC-MS/MS
Assay type: in vivo
Conditions: both sexes, beagle, dog, iv, 0.5 mL/kg, TRQI 0.5 mL/kg for 7 days, Mean, read-out: AUC0–24 h
attribute measured: AUC(0-t) (ng·h/mL)

structure smiles string	attribute measured	result
C[C@H](CCC(=O)O)[C@H]1CC[C@H]2[C@@H]3[C@@H](O)C[C@@H]4C[C@H](O)CC[C@]4(C)[C@H]3CC[C@]12C	AUC(0-t)	16400
O=C(O)[C@H]1O[C@@H](Oc2cc3oc(-c4ccccc4)cc(=O)c3c(O)c2O)[C@H](O)[C@@H](O)[C@@H]1O	AUC(0-t)	395

(I) C[C@H](CCC(=O)O)[C@H]1CC[C@H]2[C@@H]3[C@H](O)C[C@@H]4C[C@H](O)CC[C@]4(C)[C@H]3CC[C@]12C
(II) O=C(/C=C/c1ccc(O)c(O)c1)O[C@@H]1C[C@](O)(C(=O)O)C[C@@H](O)[C@H]1O
input: // which entry reports the smaller AUC(0-t), I or II ? Which one? Tell me its label.
output: II
(II: 15.4 ng·h/mL, I: 4070 ng·h/mL)

###

Assay: Pharmacokinetics in beagles, multiple-dose regimen (once per day for 7 days) of TRQI or TRQC, plasma LC-MS/MS
Format: in vivo
Details: both sexes, beagle, dog, po, TRQC 0.09 g/kg once per day for 7 days, mean
attribute measured: Tmax at 7 days (h)

structure smiles string	Tmax at 7 days [h]
C[C@H](CCC(=O)O)[C@H]1CC[C@H]2[C@@H]3[C@H](O)C[C@@H]4C[C@H](O)CC[C@]4(C)[C@H]3CC[C@]12C	4.72

(P) O=C(/C=C/c1ccc(O)c(O)c1)O[C@@H]1C[C@](O)(C(=O)O)C[C@@H](O)[C@H]1O
(Q) C[C@H](CCC(=O)O)[C@H]1CC[C@H]2[C@@H]3[C@@H](O)C[C@@H]4C[C@H](O)CC[C@]4(C)[C@H]3CC[C@]12C
input: Determine, for P and Q , which has the greater value of Tmax at 7 days. Which one? Tell me its label.
output: Q
(Q: 5.69 h, P: 3.17 h)

###

Experiment: Pharmacokinetics in beagles, single-dose regimen of TRQI (i.v.) or TRQC (oral), plasma LC-MS/MS
Format: in vivo, beagle
Conditions: both sexes, beagle, dog, plasma; single oral dose of TRQC 0.09 g/kg; mean of six beagles
Protocol: 100 μL plasma sample was drawn and transferred to 1.5 mL centrifuge tube prior to 300 μL protein precipitant (3:1 [v/v] methanol/acetonitrile, containing 0.1% formic acid and 100 ng/mL IS) was added, and then the sample was vortex-mixed for 3 min. The mixture was centrifuged at 20,000 ×g for 10 min, and 100 μL supernatant was transferred to the injection vial and analyzed directly by LC–MS/MS. […]
attribute measured: Cmax (ng/mL)

structure smiles string	output unit	Cmax
O=C(O)[C@H]1O[C@@H](Oc2cc3oc(-c4ccccc4)cc(=O)c3c(O)c2O)[C@H](O)[C@@H](O)[C@@H]1O	ng/mL	4.79

(P) C[C@H](CCC(=O)O)[C@H]1CC[C@H]2[C@@H]3[C@@H](O)C[C@@H]4C[C@H](O)CC[C@]4(C)[C@H]3CC[C@]12C
(Q) O=C(/C=C/c1ccc(O)c(O)c1)O[C@@H]1C[C@](O)(C(=O)O)C[C@@H](O)[C@H]1O
(R) C[C@H](CCC(=O)O)[C@H]1CC[C@H]2[C@@H]3[C@H](O)C[C@@H]4C[C@H](O)CC[C@]4(C)[C@H]3CC[C@]12C
input: Arrange by Cmax, high to low. Provide your answer as the labels ordered per the instruction.
output: P, R, Q
(P: 1330 ng/mL, R: 99.8 ng/mL, Q: 8.58 ng/mL)

###

Experiment: Pharmacokinetics in beagles, multiple-dose regimen (once per day for 7 days) of TRQI or TRQC, plasma LC-MS/MS
Type: in vivo
Details: male, beagle, dog, po, 0.09 g/kg, TRQC 0.09 g/kg for 7 days, beagle No. 3, read-out: AUC0–24 h
attribute measured: AUC(0-t) (ng·h/mL)

Solved cases (2 shown):
compound	AUC(0-t) (ng·h/mL)
O=C(/C=C/c1ccc(O)c(O)c1)O[C@@H]1C[C@](O)(C(=O)O)C[C@@H](O)[C@H]1O [Chlorogenic acid, chlorogenic acid]	5.21
O=C(O)[C@H]1O[C@@H](Oc2cc3oc(-c4ccccc4)cc(=O)c3c(O)c2O)[C@H](O)[C@@H](O)[C@@H]1O [Baicalin, baicalin]	69.7

(I) C[C@H](CCC(=O)O)[C@H]1CC[C@H]2[C@@H]3[C@H](O)C[C@@H]4C[C@H](O)CC[C@]4(C)[C@H]3CC[C@]12C [Chenodeoxycholic acid, chenodeoxycholic acid]
(II) C[C@H](CCC(=O)O)[C@H]1CC[C@H]2[C@@H]3[C@@H](O)C[C@@H]4C[C@H](O)CC[C@]4(C)[C@H]3CC[C@]12C [Ursodeoxycholic acid, ursodeoxycholic acid]
input: // which entry reports the smaller AUC(0-t), I or II ? Which one? Tell me its label.
output: I
(I: 493 ng·h/mL, II: 7190 ng·h/mL)

###

Assay: Pharmacokinetics in beagles, single-dose regimen of TRQI (i.v.) or TRQC (oral), plasma LC-MS/MS
Format: in vivo, beagle
Conditions: both sexes, beagle, dog, plasma, iv; single i.v. dose of TRQI 0.5 mL/kg; mean of six beagles
attribute measured: Cmax (ng/mL)

compound	attribute measured	result
O=C(O)[C@H]1O[C@@H](Oc2cc3oc(-c4ccccc4)cc(=O)c3c(O)c2O)[C@H](O)[C@@H](O)[C@@H]1O [Baicalin, baicalin]	Cmax	1050

(P) C[C@H](CCC(=O)O)[C@H]1CC[C@H]2[C@@H]3[C@H](O)C[C@@H]4C[C@H](O)CC[C@]4(C)[C@H]3CC[C@]12C [Chenodeoxycholic acid, chenodeoxycholic acid]
(Q) C[C@H](CCC(=O)O)[C@H]1CC[C@H]2[C@@H]3[C@@H](O)C[C@@H]4C[C@H](O)CC[C@]4(C)[C@H]3CC[C@]12C [Ursodeoxycholic acid, ursodeoxycholic acid]
(R) O=C(/C=C/c1ccc(O)c(O)c1)O[C@@H]1C[C@](O)(C(=O)O)C[C@@H](O)[C@H]1O [Chlorogenic acid, chlorogenic acid]
input: Arrange by Cmax, high to low. Provide your answer as the labels ordered per the instruction.
output: Q, P, R

###

Test: Stability of analytes in dog plasma (QC samples)
Type: in vitro ADME
Conditions: n = 3, low QC: nominal 4 ng/mL baicalin, 20 ursodeoxycholic acid, 2 chenodeoxycholic acid and chlorogenic acid
attribute measured: Freeze-thaw stability (3 cycles) Mean ± S.D. concentration (ng/mL)

Solved cases (2 shown):
structure smiles string	result
C[C@H](CCC(=O)O)[C@H]1CC[C@H]2[C@@H]3[C@H](O)C[C@@H]4C[C@H](O)CC[C@]4(C)[C@H]3CC[C@]12C	1.97
O=C(O)[C@H]1O[C@@H](Oc2cc3oc(-c4ccccc4)cc(=O)c3c(O)c2O)[C@H](O)[C@@H](O)[C@@H]1O	3.97

(a) O=C(/C=C/c1ccc(O)c(O)c1)O[C@@H]1C[C@](O)(C(=O)O)C[C@@H](O)[C@H]1O
(b) C[C@H](CCC(=O)O)[C@H]1CC[C@H]2[C@@H]3[C@@H](O)C[C@@H]4C[C@H](O)CC[C@]4(C)[C@H]3CC[C@]12C
input: // which entry reports the smaller Freeze-thaw stability (3 cycles) Mean ± S.D. concentration, a or b ? Which one? Tell me its label.
output: a

###

Assay: Stability of analytes in dog plasma (QC samples)
Assay type: in vitro ADME
Details: n = 3, middle QC: nominal 20 ng/mL baicalin, 100 ursodeoxycholic acid, 10 chenodeoxycholic acid and chlorogenic acid
attribute measured: Short-term stability (6 h at room temperature) Mean ± S.D concentration (ng/mL)

Solved cases (2 shown):
structure smiles string	result
C[C@H](CCC(=O)O)[C@H]1CC[C@H]2[C@@H]3[C@H](O)C[C@@H]4C[C@H](O)CC[C@]4(C)[C@H]3CC[C@]12C	9.79
O=C(O)[C@H]1O[C@@H](Oc2cc3oc(-c4ccccc4)cc(=O)c3c(O)c2O)[C@H](O)[C@@H](O)[C@@H]1O	18.43

(A) C[C@H](CCC(=O)O)[C@H]1CC[C@H]2[C@@H]3[C@@H](O)C[C@@H]4C[C@H](O)CC[C@]4(C)[C@H]3CC[C@]12C
(B) O=C(/C=C/c1ccc(O)c(O)c1)O[C@@H]1C[C@](O)(C(=O)O)C[C@@H](O)[C@H]1O
input: // which entry reports the smaller Short-term stability (6 h at room temperature) Mean ± S.D concentration, A or B ? Which one? Tell me its label.
output: B

###

Experiment: Pharmacokinetics in beagles, single-dose regimen of TRQI (i.v.) or TRQC (oral), plasma LC-MS/MS
Type: in vivo, beagle
Settings: both sexes, beagle, dog, plasma, iv; single i.v. dose of TRQI 0.5 mL/kg; mean of six beagles
attribute measured: half-life (h)

compound	half-life / h
O=C(O)[C@H]1O[C@@H](Oc2cc3oc(-c4ccccc4)cc(=O)c3c(O)c2O)[C@H](O)[C@@H](O)[C@@H]1O [Baicalin, baicalin]	6.75

(P) O=C(/C=C/c1ccc(O)c(O)c1)O[C@@H]1C[C@](O)(C(=O)O)C[C@@H](O)[C@H]1O [Chlorogenic acid, chlorogenic acid]
(Q) C[C@H](CCC(=O)O)[C@H]1CC[C@H]2[C@@H]3[C@@H](O)C[C@@H]4C[C@H](O)CC[C@]4(C)[C@H]3CC[C@]12C [Ursodeoxycholic acid, ursodeoxycholic acid]
(R) C[C@H](CCC(=O)O)[C@H]1CC[C@H]2[C@@H]3[C@H](O)C[C@@H]4C[C@H](O)CC[C@]4(C)[C@H]3CC[C@]12C [Chenodeoxycholic acid, chenodeoxycholic acid]
input: Arrange by half-life, high to low. Provide your answer as the labels ordered per the instruction.
output: Q, R, P
